- Test system: TDF
- PROTOCOL: H1.0 immunofluorescence intensity relative to DMSO (% of DMSO); higher = stronger H1.0 induction, active = 120 or more
- DETAILS: concentration: 10 µM; 24 h
Please go through the items and note down their H1.0 immunofluorescence intensity.
When you answer, write just the number.

Problem: Can you look up the measured H1.0 immunofluorescence intensity of CCCN1CCCC2Cc3[nH]ncc3CC21 (racemic) for me?
Result: 100

Problem: Now try CC(C)(C)C1(O)CC2OC(=O)CC23C(=O)OC2OC(=O)C(O)C231 (stereo not drawn) [Bilobalide] .
Result: 96.7

Problem: Now try CC1CCC2N(C1)CC1C3CC4C(CC(=O)C5CC(O)CCC54C)C3CCC1C2(C)O (stereo not drawn) .
Result: 97.1

Problem: Now try CC12C(=O)OC(=O)C1(C)C1CCC2O1 (stereo not drawn) .
Result: 210

Problem: Now try COc1cc2c(cc1OC)[C@H]1CC(=O)[C@H](CC(C)C)CN1CC2 .
Result: 88

Problem: Now try O=C1CSC(c2ccccc2Cl)c2cc(Cl)ccc2N1 (stereo not drawn) .
Result: 95.3

Problem: Now try CC1C=CC=CCCC=CC=CC=CC=CC(OC2OC(C)C(O)C(N)C2O)CC2OC(O)(CC(O)C(O)CCC(O)CC(O)CC(O)CC(=O)OC(C)C(C)C1O)CC(O)C2C(=O)O (stereo not drawn) .
Result: 103

Problem: Now try CC1CCC2C(C)C3CCC4(O)C(CC5C4CC(=O)C4CC(=O)CCC45C)C3CN2C1 (stereo not drawn) .
Result: 91.7

Problem: Now try CN1C2CCC1CC(OC(=O)C(CO)c1ccccc1)C2 (stereo not drawn) [Hyoscyamine] .
Result: 97.8

Problem: Now try CC(=O)OC1CC2CCC3C(CCC4(C)C3CC([N+]3(C)CCCCC3)C4OC(C)=O)C2(C)CC1[N+]1(C)CCCCC1.[Br-].[Br-] (stereo not drawn) [Pancuronium.2Br] .
Result: 93.9

Problem: Now try Nc1ccc(CCN2CCN(c3cccc(C(F)(F)F)c3)CC2)cc1 .
Result: 99.4

Problem: Now try CC1=C2CC3C(CC=C4CC(O)CCC43C)C2CCC12OC1CC(C)CNC1C2C (stereo not drawn) .
Result: 94.9

Problem: Now try CC1CCC2(NC1)OC1CC3C4CC=C5CC(O)CCC5(C)C4CCC3(C)C1C2C (stereo not drawn) .
Result: 100

Problem: Now try Cl.NCC(O)c1cc(O)c(O)cc1F (stereo not drawn) [6-Fluoronorepinephrine hydrochloride] .
Result: 89.4

Problem: Now try C#CC1(O)CCC2C3CCC4=CC(=O)CCC4=C3C=CC21CC (stereo not drawn) .
Result: 91.2

Problem: Now try CCC1C(C)=NN=C(c2ccc(OC)c(OC)c2)c2cc(OC)c(OC)cc21 (stereo not drawn) .
Result: 93.1

Problem: Now try N#CC(C#N)=Cc1ccc(O)c(O)c1 .
Result: 94.4

Problem: Now try CN1C2CCC1CC(OC(=O)c1cc(Cl)cc(Cl)c1)C2 (stereo not drawn) [3-Tropanyl-3,5-dichlorobenzoate] .
Result: 102

* * *

Please go through the items and note down their H1.0 immunofluorescence intensity.
- System: HCC1569
- PROTOCOL: H1.0 immunofluorescence intensity relative to DMSO (% of DMSO); higher = stronger H1.0 induction, active = 140 or more
- DETAILS: concentration: 10 µM; 24 h
When you answer, write just the number.

Problem: Can you look up the measured H1.0 immunofluorescence intensity of CC(C)Oc1cccnc1N(C)C1CCN(Cc2ccccc2)CC1.O=C(O)C=CC(=O)O for me?
Result: 112

Problem: Now try CC(=O)NCCc1c[nH]c2ccccc12 [N-Acetyltryptamine] .
Result: 94.1

Problem: Now try CS(=O)CCCCN=C=S (centres undefined) [1-isothiocyanato-4-(methylsulfinyl)butane] .
Result: 89.6

Problem: Now try Cc1cc(C2CCCN2C)on1 (centres undefined) .
Result: 88.1

Problem: Now try O=C1Nc2ccc3ncsc3c2C1=Cc1cnc[nH]1 [PKR Inhibitor] .
Result: 136

Problem: Now try CC[N+](CC)(CC)CC.[Cl-] [Tetraethylammonium chloride] .
Result: 108

Problem: Now try Clc1ccc(C(c2ccc(Cl)cc2)n2cc[n+](CC(OCc3ccc(Cl)cc3Cl)c3ccc(Cl)cc3Cl)c2)cc1.[Cl-] (centres undefined) [Calmidazolium chloride] .
Result: 95.3

Problem: Now try CCCN(CCC)C1CCc2c(F)ccc(O)c2C1.Cl (stereo not drawn) [R(+)-UH-301 hydrochloride] .
Result: 101

Problem: Now try Clc1ccc(C2CC3CCC2N3)cn1 (racemic) .
Result: 81.4

* * *

- System: TDF
- PROTOCOL: cell number relative to DMSO (% of DMSO); higher = more cells (less growth inhibition / toxicity)
- DETAILS: concentration: 10 µM; 24 h
MEASURED_PARAMETER: cell number
When you answer, write just the number.

Problem: Can you look up the measured cell number of O=P([O-])(O)C(Cl)(Cl)P(=O)([O-])O.[Na+].[Na+] for me?
Result: 101

Problem: Now try CC12CCC3C(CCC4=CC(=O)CCC43C)C1CCC2=O (centres undefined) .
Result: 113

Problem: Now try C=CCN1CCC23c4c5ccc(O)c4OC2C(=NN=C2CCC4(O)C6Cc7ccc(O)c8c7C4(CCN6CC=C)C2O8)CCC3(O)C1C5 (centres undefined) .
Result: 89

Problem: Now try COC(=O)c1cc2c(cn1)[nH]c1ccccc12 [Methyl beta-carboline-3-carboxylate] .
Result: 105

Problem: Now try CC(C)C1(NC(=O)C2CC3c4cccc5[nH]cc(c45)CC3N(C)C2)OC2(O)C3CCCN3C(=O)C(Cc3ccccc3)N2C1=O.CS(=O)(=O)O (centres undefined) [Dihydroergocristine methanesulfonate] .
Result: 109

Problem: Now try O=C1C=C2C=CC3CC2(O1)C1CCCCN31 (centres undefined) .
Result: 76.4

Problem: Now try NC(Cc1cc(O)c(O)cc1O)C(=O)O (racemic) [6-Hydroxy-DL-DOPA] .
Result: 96.2

Problem: Now try O=C(O)c1nn(Cc2ccc(Cl)cc2Cl)c2ccccc12 .
Result: 96.2

Problem: Now try CCCC(C)(COC(N)=O)COC(=O)NC(C)C (centres undefined) .
Result: 90.8

Problem: Now try CC(C)c1cccc(C(C)C)c1O .
Result: 93.1

Problem: Now try NC(Cn1oc(=O)[nH]c1=O)C(=O)O (single isomer, unassigned; (+)) [(+)-Quisqualic acid] .
Result: 94.1

Problem: Now try CC1OC(=O)C2CC3CCCCC3C(C=CC3CCCC(C)N3C)C12 (centres undefined) [Himbacine] .
Result: 107

Problem: Now try CC1C=CC=CCCC=CC=CC=CC=CC(OC2OC(C)C(O)C(N)C2O)CC2OC(O)(CC(O)C(O)CCC(O)CC(O)CC(O)CC(=O)OC(C)C(C)C1O)CC(O)C2C(=O)O (centres undefined) .
Result: 105

Problem: Now try CCCN1CC(CSC)CC2c3cccc4[nH]cc(c34)CC21.CS(=O)(=O)O (centres undefined) [Pergolide methanesulfonate] .
Result: 98.2

Problem: Now try COC1=CC(=O)OC(C=Cc2ccc3c(c2)OCO3)C1 (centres undefined) .
Result: 106

Problem: Now try Nc1ccc(CCN2CCN(c3cccc(C(F)(F)F)c3)CC2)cc1 .
Result: 98.9

Problem: Now try O=C(O)C=CC(=O)O.O=C(O)C=CC(=O)O.c1ccc2nc(N3CCNCC3)ccc2c1 [Quipazine dimaleate] .
Result: 103

Problem: Now try CN(C)C(=O)Oc1cc(OC(=O)N(C)C)cc(C(O)CNC(C)(C)C)c1 (centres undefined) .
Result: 112

Problem: Now try CC1=CC23C(=O)C(C=C(CO)C(O)C2(O)C1O)C1C(CC3C)C1(C)C (centres undefined) .
Result: 107

Problem: Now try O=C1NC(=O)c2c1c1c3ccccc3[nH]c1c1[nH]c3ccccc3c21 .
Result: 126

Problem: Now try CNC(=O)Oc1ccc2c(c1)C1(C)CCN(C)C1N2C (single isomer, unassigned; (-)) [(-)-Physostigmine] .
Result: 118

Problem: Now try NC(N)=NOCC[C@H](N)C(=O)O.O=S(=O)(O)O [L-Canavanine sulfate] .
Result: 81.3

Problem: Now try COC(=O)C1(O)CC2OC1(C)n1c3ccccc3c3c4c(c5c6ccccc6n2c5c31)C(=O)NC4 (centres undefined) [K-252a, Nocardiopsis sp.] .
Result: 2.54

Problem: Now try CCNC1=Nc2ccc(Cl)cc2C(C)(c2ccccc2)O1.Cl (centres undefined) .
Result: 105

* * *

- System: HCC1569
- PROTOCOL: cell number relative to DMSO (% of DMSO); higher = more cells (less growth inhibition / toxicity)
- DETAILS: concentration: 10 µM; 24 h
Structures can show the parent of a compound that is named as a salt.
Please go through the items and note down their cell number.
When you answer, write just the number.

Problem: Can you look up the measured cell number of Cl.O=C1CCC2(O)C3Cc4ccc(O)c5c4C2(CCN3CC2CC2)C1O5 (stereo not drawn) [Naltrexone hydrochloride] for me?
Result: 103

Problem: Now try CCCn1c(=O)c2[nH]c(C3CCCC3)nc2n(CCCOC(=O)c2ccc(S(=O)(=O)F)cc2)c1=O .
Result: 99.7

Problem: Now try Nc1ncnc2c1ncn2C1OC(COP(=O)(O)CP(=O)(O)OP(=O)([O-])[O-])C(O)C1O.[Li+].[Li+] (stereo not drawn) [alpha,beta-Methylene adenosine 5'-triphosphate dilithium] .
Result: 102

Problem: Now try CCCCCC=CCC=CCCCCCCCC(=O)NCCO [Anandamide (18:2,n-6)] .
Result: 100

Problem: Now try CN(C)C(=O)C(CCN1CCC(O)(c2ccc(Cl)cc2)CC1)(c1ccccc1)c1ccccc1.Cl [Loperamide.HCl] .
Result: 102

Problem: Now try CC(Cc1ccc2c(c1)OC(C(=O)[O-])(C(=O)[O-])O2)NCC(O)c1cccc(Cl)c1.[Na+].[Na+] (stereo not drawn) .
Result: 97.5

Problem: Now try CC(C)C1(NC(=O)C2CC3c4cccc5[nH]cc(c45)CC3N(C)C2)OC2(O)C3CCCN3C(=O)C(Cc3ccccc3)N2C1=O.CS(=O)(=O)O (stereo not drawn) [Dihydroergocristine mesylate] .
Result: 100

Problem: Now try CN1C2CCC1CC(O)C2 (stereo not drawn) .
Result: 102

Problem: Now try O=C1NC(=O)c2c1c1c3ccccc3[nH]c1c1[nH]c3ccccc3c21 .
Result: 98.8

Problem: Now try CC(N)Cc1cnc[nH]1.Cl.Cl (stereo not drawn) [Histamine, R(-)-alpha-methyl-, dihydrochloride] .
Result: 97.4

Problem: Now try O=S1(=O)N(CCN2CC=C(c3c[nH]c4cc(F)ccc34)CC2)c2cccc3c2N1CCC3 .
Result: 101

Problem: Now try S=C(NC1CCCCC1)N1CCC(c2cnc[nH]2)CC1 [Thioperamide maleate] .
Result: 104

Problem: Now try Cl.Cl.Clc1cccc(N2CCNCC2)c1 [1-(3-Chlorophenyl)piperazine dihydrochloride] .
Result: 83.5

Problem: Now try Cl.Oc1cc2c(cc1O)C1c3ccccc3CNC1CC2 (stereo not drawn) [Dihydrexidine hydrochloride] .
Result: 96.3

Problem: Now try NC(C(=O)O)c1cc(=O)[nH]o1 (racemic) .
Result: 104

Problem: Now try CCC(C(=O)O)C1OC(C(C)C(O)C(C)C(=O)C(CC)C2OC3(C=CC(O)C4(CCC(C)(C5CCC(O)(CC)C(C)O5)O4)O3)C(C)CC2C)C(C)CC1C (stereo not drawn) .
Result: 67.3

Problem: Now try Clc1ccc(C(c2ccc(Cl)cc2)n2cc[n+](CC(OCc3ccc(Cl)cc3Cl)c3ccc(Cl)cc3Cl)c2)cc1.[Cl-] (stereo not drawn) [Calmidazolium chloride] .
Result: 17.8

Problem: Now try CC1(CO)C(O)CCC2(C)C1CCC1CC3CC12CCC3(O)CO (stereo not drawn) .
Result: 79.6

Problem: Now try Cc1o[nH]c(=O)c1CC(N)C(=O)O (racemic) .
Result: 103

Problem: Now try CC1Cc2c(Cl)cc(C(=O)NC(Cc3ccccc3)C(=O)O)c(O)c2C(=O)O1 (stereo not drawn) .
Result: 107

Problem: Now try C[N+]1(C)CCOC(O)(c2ccc(-c3ccc(C4(O)C[N+](C)(C)CCO4)cc3)cc2)C1.[Br-].[Br-] (stereo not drawn) .
Result: 100

Problem: Now try O=C(O)c1cc[c]([Hg][Cl])cc1 .
Result: 102

Problem: Now try O=c1[nH]c2ccccc2n1C1CCN(CCCC(c2ccc(F)cc2)c2ccc(F)cc2)CC1 [Pimozide] .
Result: 81.2
